Target: human DLL3 endogenously expressed on SHP77 and NCI-H82 cells (human) (UniProt Q9NYJ7)
Sequence (Q9NYJ7 27-618): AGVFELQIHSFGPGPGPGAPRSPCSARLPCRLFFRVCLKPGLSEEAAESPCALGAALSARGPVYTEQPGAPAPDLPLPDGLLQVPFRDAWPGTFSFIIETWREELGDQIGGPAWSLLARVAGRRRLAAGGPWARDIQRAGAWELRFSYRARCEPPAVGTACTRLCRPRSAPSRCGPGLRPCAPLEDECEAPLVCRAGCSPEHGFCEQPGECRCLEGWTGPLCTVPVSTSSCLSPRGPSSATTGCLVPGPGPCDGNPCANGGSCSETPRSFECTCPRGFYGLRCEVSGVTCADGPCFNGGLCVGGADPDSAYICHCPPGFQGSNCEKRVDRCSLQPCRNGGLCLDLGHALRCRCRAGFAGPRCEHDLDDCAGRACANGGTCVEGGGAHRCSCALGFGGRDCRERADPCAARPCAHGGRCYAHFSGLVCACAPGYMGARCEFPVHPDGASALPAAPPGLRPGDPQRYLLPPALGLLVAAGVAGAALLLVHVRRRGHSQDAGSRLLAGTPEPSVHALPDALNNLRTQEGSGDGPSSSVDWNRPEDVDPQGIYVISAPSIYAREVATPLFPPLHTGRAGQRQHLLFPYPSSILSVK
Experiment: FACS SHP77 cells, 100 nM
Endpoint Label: MFI (MFI)
# output: bare number, implied unit MFI

mab005 scFv-hFc (Fc fusion, not shown: small tags and cut ends; a dimerising Fc or GST) scFv (part 1 of 2): DIVLTQSPATLSVTPGDSVSLSCRASQSVSNDLHWYQQKSHESPRLLIKYASQSISGIPSRFSGSGSGTDFTLTINSVETEDFGMYFCQQSNNWPYTFGGGTKLEMK scFv (part 2 of 2): QVQLQQSGAELMKPGASVTLSCKATGYTLPGYWIEWVKQRPGHGLEWIGEILPGSSSANYNEKFKGKATFTADTSSNTAYMQLSSLTTEDSAIYYCASTYGTSLDYWGQGTTLTVSS: 543
mab002 scFv-hFc (Fc fusion, not shown: small tags and cut ends; a dimerising Fc or GST) scFv (part 1 of 2): QIVLTQSPAIMSASPGEKVTMTCSARSSVSYMQWYQQKSGTSPKRWIYDTSKLASGVPARFSGSGSGTSYSLTISTMEAEDAATYYCQQWSSDPPTFGGGTKLEIK scFv (part 2 of 2): QIQLVQSGPELKKPGETVKISCKASGYTFTNYGMNWLKQAPGKGLKWMGWINTYTGESTYADDFKGRFAFSLETSASTVYLQINNLKNEDMATYFCARMGDGYYDFTMDYWGQGTSVTVSS: 596

The record that follows has no MFI shown yet.
Return reported MFI; argument: mab016 scFv-hFc (Fc fusion, not shown: small tags and cut ends; a dimerising Fc or GST) scFv (part 1 of 2): DIVMTQSQKFMSTTIGDRVSITCKASQNVGTTVAWYQQKPGQSPNLLLYSTSNRFTGVPDRFTGSGSGTDFTLTITNMQSEDLADYFCQQYNNYPLTFGGGTKLEIK scFv (part 2 of 2): EVNLEESGGGLVQPGGSMKLSCVASGFAFSNFWMQWVRQSPEKGLEWVAQIRLKSDNYAAHYAESVKGRFTISRDDSKSSVYLQLNNLRAEDTGTYYCTQGNWVGFAYWGQGTLVTVSA
790

Attribution: patent EP4786492A1
